Conditions: in MTBE, 313.2 K

mol	solubility (mole fraction)
CCCCCCCCC(=O)NCc1ccc(O)c(OC)c1	0.427

---

Conditions: in methanol, 303.2 K

mol	solubility (mole fraction)
CCCCCCCCC(=O)NCc1ccc(O)c(OC)c1	0.349

From: BigSolDB 2.1
